Attribution: patent US10329302B2

Target: human IRAK4 kinase domain (aa 154-460) (Homo sapiens (Human), UniProt Q9NWZ3)
Sequence (Q9NWZ3 154-460): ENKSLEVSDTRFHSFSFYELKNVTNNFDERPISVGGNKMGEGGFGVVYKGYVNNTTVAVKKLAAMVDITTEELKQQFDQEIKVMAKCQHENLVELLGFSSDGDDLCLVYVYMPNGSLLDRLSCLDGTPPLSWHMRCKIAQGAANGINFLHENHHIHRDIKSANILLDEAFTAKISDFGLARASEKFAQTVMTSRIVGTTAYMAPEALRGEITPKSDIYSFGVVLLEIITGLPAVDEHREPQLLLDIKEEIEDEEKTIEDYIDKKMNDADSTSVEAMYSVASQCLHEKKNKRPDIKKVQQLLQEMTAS
Experiment: IRAK4 Enzymatic DELFIA Assay, Protocol B
Type: biochemical
Details: human IRAK4 kinase domain (aa 154-460), 0.6 mM ATP (KM); read-out: IRAK4 DELFIA Protocol B IC50
pIC50: −log10 of the molar value.
Given measured pIC50, output class 1 if it is greater than or equal to 6 and class 0 if not.

Exercise: pIC50 >= 6 for CC(C)Oc1cc2c(O[C@@H]3C[C@H]4C[C@@H]3CN(C(=O)CC#N)C4)ccnc2cc1C(N)=O ?
Key: class 1

Exercise: pIC50 >= 6 for CC(C)Oc1cc2c(OC[C@H]3CNCCO3)nccc2cc1C(N)=O ?
Key: class 0

Exercise: pIC50 >= 6 for CC(C)Oc1cc2c(O[C@H]3CC[C@@H]4CN(C(=O)CC#N)C[C@@H]43)nccc2cc1C(N)=O ?
Key: class 1

Exercise: pIC50 >= 6 for CC(C)Oc1cc2c(OC[C@H]3[C@@H]4CNC[C@@H]43)nccc2cc1C(N)=O ?
Key: class 1

Exercise: pIC50 >= 6 for CC(C)Oc1cc2c(OCC3(NC(=O)CC#N)CCCC3)nccc2cc1C(N)=O ?
Key: class 1

Exercise: pIC50 >= 6 for CC(C)Oc1cc2c(OCC3(F)CCN(C(=O)CC#N)CC3)nccc2cc1C(N)=O ?
Key: class 0

Exercise: pIC50 >= 6 for CC(C)Oc1cc2c(OC[C@@H]3CN(C(=O)CC#N)CCO3)ccnc2cc1C(N)=O ?
Key: class 1

Exercise: pIC50 >= 6 for CC(C)Oc1cc2c(OC3C[C@@H]4CN[C@H]3C4)nccc2cc1C(N)=O (some centres unmarked) ?
Key: class 0

Exercise: pIC50 >= 6 for CC(C)Oc1cc2c(O[C@H]3C[C@@H]4C[C@H]3CN(C(=O)CC#N)C4)nccc2cc1C(N)=O ?
Key: class 1

Exercise: pIC50 >= 6 for CC(C)Oc1cc2c(OC[C@H]3CCNC3)nccc2cc1C(N)=O ?
Key: class 1

Exercise: pIC50 >= 6 for CC(C)Oc1cc2c(O[C@@H]3C[C@@H]4CN[C@H]3C4)nccc2cc1C(N)=O ?
Key: class 0

Exercise: pIC50 >= 6 for CC(C)Oc1cc2c(OC[C@@H]3CCNC3)nccc2cc1C(N)=O ?
Key: class 1

Exercise: pIC50 >= 6 for CC(C)Oc1cc2c(OC[C@H]3[C@@H]4CNC[C@@H]43)ccnc2cc1C(N)=O ?
Key: class 1

Exercise: pIC50 >= 6 for CC(C)Oc1cc2c(OC[C@@]34C[C@@H]3CN(C(=O)CC#N)C4)ccnc2cc1C(N)=O [Example 94] ?
Key: class 1
